Target: Galanin receptor type 2 (Rattus norvegicus, UniProt O08726)
Sequence (O08726 whole entry): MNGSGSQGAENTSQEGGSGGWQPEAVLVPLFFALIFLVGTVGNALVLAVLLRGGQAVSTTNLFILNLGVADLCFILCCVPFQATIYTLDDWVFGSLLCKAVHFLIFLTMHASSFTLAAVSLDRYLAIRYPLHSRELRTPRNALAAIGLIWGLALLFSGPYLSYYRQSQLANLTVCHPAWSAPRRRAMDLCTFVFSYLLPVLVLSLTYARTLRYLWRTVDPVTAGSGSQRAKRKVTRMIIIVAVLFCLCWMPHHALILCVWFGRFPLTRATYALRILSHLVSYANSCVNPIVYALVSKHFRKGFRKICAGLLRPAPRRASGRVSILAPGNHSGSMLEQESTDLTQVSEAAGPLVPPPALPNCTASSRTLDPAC
Assignment: determine reported pKi for the given substances.
// pKi: -log10(molar conc.)

pKi measured on H-GWTLNSAGYLLGPPPALALA-NH2 [M40] = 7.74

pKi measured on H-ELEPEDEARPGGFDRLQSQDKAIRTIMEFLAFLHLKEAGAL-NH2 [GMAP (1-41)] = 6.08

The measured values listed here are drawn from BindingDB's records for doi:10.1124/mol.52.3.337.
